# credit: patent US20250179059A1

# Subject Of Test: human BRD4 bromodomain II (Homo sapiens, UniProt O60885)
# Construct: human BRD4 bromodomain II [based on Genbank NM_058243, residues 349-460]; host or cells: E. coli
# Procedure Text: Bromodomain binding assay (AlphaScreen), BRD4 BDII
# Measurement Parameters: AlphaScreen assay, Table C2; read-out: BRD4 BDII IC50
pIC50: −log10 of the molar value.
Measured Quantity: pIC50

Request: # pIC50 lookup, item O=C1NCCN1c1ccc(-c2cccc(-c3cc(N4CCNCC4)no3)c2O)cc1 [Example 41, 2,2,2-trifluoroacetate]
Result: 7.00 to 8.00

Request: # pIC50 lookup, item CC(=O)Nc1ccc(-c2cccc(-c3cnn(C4CCN(C)CC4)c3)c2O)cc1 [Example 17]
Result: < 7.00

Request: # pIC50 lookup, item Cn1ccn(-c2ccc(-c3cc(F)cc(-c4cncc(N5CCN(C(C)(C)C)CC5)c4)c3O)cc2Cl)c1=O [Example 664]
Result: 9.00 to 11.00

Request: # pIC50 lookup, item COC(=O)c1cc(-c2cccc(-c3ccc(NC(C)=O)c(F)c3)c2O)ccn1 [Example 201]
Result: 7.00 to 8.00

Request: # pIC50 lookup, item CC(=O)Nc1ccc(-c2cccc(-c3ccc(NC(C)=O)c(Cl)c3)c2O)cc1F [Example 46]
Result: < 7.00

Request: # pIC50 lookup, item Cc1cc(-c2ccc(-n3ccn(C)c3=O)c(Cl)c2)c(O)c(-c2cc(N3CCNCC3)c3nccnc3c2)c1 [Example 562]
Result: 9.00 to 11.00

Request: # pIC50 lookup, item Cc1ncc(-c2cc(F)cc(-c3ccc(-n4ccn(C)c4=O)c(Cl)c3)c2O)cc1N1CC(C)(O)C2(CC2)C1 (stereo not shown) [Example 829]
Result: 9.00 to 11.00

Request: # pIC50 lookup, item CN1CCC2CN(c3cc(-c4cc(F)cc(-c5ccc(-n6ccn(C)c6=O)c(Cl)c5)c4O)ccn3)CC21 (stereo not shown) [Example 658]
Result: 9.00 to 11.00

Request: # pIC50 lookup, item CC(=O)Nc1ccc(-c2cccc(-c3ccc4ocnc4c3)c2O)cc1F [Example 122]
Result: < 7.00

Request: # pIC50 lookup, item CN1CCN(c2ccc(-c3cc(F)cc(-c4cc(N5CCC[C@H](N)C5)c(=O)n(C)c4)c3O)cc2Cl)C1=O [Example 378]
Result: 8.00 to 9.00

Request: # pIC50 lookup, item C#CCN1CCN(c2cc(-c3cc(F)cc(-c4ccc(-n5ccn(C)c5=O)c(Cl)c4)c3O)ccn2)CC1 [Example 669]
Result: 9.00 to 11.00

Request: # pIC50 lookup, item Cc1cc(-c2cc(C)nc(N3CC[C@H](N)C3)c2)c(O)c(-c2ccc(-n3ccn(C)c3=O)c(Cl)c2)c1 [Example 518]
Result: 9.00 to 11.00

Request: # pIC50 lookup, item CC(=O)Nc1ccc(-c2cccc(-c3cc(N4CCN(C)CC4)no3)c2O)cc1 [Example 6]
Result: 7.00 to 8.00

---

Answer each item with its documented pIC50.
# Subject Of Test: human BRD4 bromodomain II (Homo sapiens, UniProt O60885)
# Construct: human BRD4 bromodomain II [based on Genbank NM_058243, residues 349-460]; host or cells: E. coli
# Procedure Text: Bromodomain binding assay (AlphaScreen), BRD4 BDII
# Measurement Parameters: AlphaScreen assay, Table C2; read-out: BRD4 BDII IC50
pIC50: −log10 of the molar value.

Request: # pIC50 lookup, item Cn1ccn(-c2ccc(-c3cc(F)cc(-c4cc(N5CC[C@H](N)C5)c5nccnc5c4)c3O)cc2Cl)c1=O
Result: 8.00 to 9.00

Request: # pIC50 lookup, item Cc1cc(-c2ccc(-n3ccn(C)c3=O)c(Cl)c2)c(O)c(-c2cc(N3CC[C@H](N)C3)c3nccnc3c2)c1
Result: 9.00 to 11.00

Request: # pIC50 lookup, item C[C@@H]1CN(c2cc(-c3cc(F)cc(-c4ccc(-n5ccn(C)c5=O)c(Cl)c4)c3O)cc3[nH]c(=O)[nH]c23)CCN1
Result: 9.00 to 11.00

---

# Subject Of Test: human BRD4 bromodomain II (Homo sapiens, UniProt O60885)
# Construct: human BRD4 bromodomain II [based on Genbank NM_058243, residues 349-460]; host or cells: E. coli
# Procedure Text: Bromodomain binding assay (AlphaScreen), BRD4 BDII
# Measurement Parameters: AlphaScreen assay, Table C2; read-out: BRD4 BDII IC50
pIC50: −log10 of the molar value.
Answer each item with its documented pIC50.

Request: # pIC50 lookup, item CN1CCN(c2ccc(-c3cc(F)cc(-c4cc(N5CCNCC5)c(=O)n(C)c4)c3O)cc2Cl)C1=O [Example 372]
Result: 8.00 to 9.00

Request: # pIC50 lookup, item Cn1ccn(-c2ccc(-c3cc(F)cc(-c4cc(N5CC6CCC5CN6)c5cn[nH]c5c4)c3O)cc2Cl)c1=O (stereo not shown) [Example 600]
Result: 8.00 to 9.00

Request: # pIC50 lookup, item Cn1ccn(-c2ccc(-c3cc(F)cc(-c4cc(NS(C)(=O)=O)nc(N5CCNCC5)c4)c3O)cc2Cl)c1=O [Example 439]
Result: 9.00 to 11.00

Request: # pIC50 lookup, item Cn1ccn(-c2ccc(-c3cc(F)cc(-c4ccnc(N5CCC(C)(N6CCCC6)C5)c4)c3O)cc2Cl)c1=O (stereo not shown) [Example 822]
Result: 8.00 to 9.00

---

# Subject Of Test: human BRD4 bromodomain II (Homo sapiens)
# Construct: human BRD4 bromodomain II [based on Genbank NM_058243, residues 349-460]; host or cells: E. coli
# Procedure Text: Bromodomain binding assay (AlphaScreen), BRD4 BDII
# Measurement Parameters: BRD4 BDII AlphaScreen assay; read-out: BRD4 BD2 IC50
Measured Quantity: IC50

Request: # IC50 lookup, item CC(C)N1CCCC12CCN(c1cccc(-c3cc(F)cc(-c4ccc(-n5ccn(C)c5=O)c(Cl)c4)c3O)c1)C2 (stereo not drawn)
Result: 1 to 10 nM

Request: # IC50 lookup, item [2H]C([2H])([2H])n1ccn(-c2ccc(-c3cc(F)cc(-c4cnc(OC)c(N5CCN(C(C)(C)C)CC5)c4)c3O)cc2Cl)c1=O
Result: 1 to 10 nM

Request: # IC50 lookup, item COc1ncc(-c2cc(F)cc(-c3ccc(-n4ccn(C)c4=O)c(C)c3)c2O)cc1N1CCN(C(C)(C)C)CC1
Result: 1 to 10 nM

Request: # IC50 lookup, item CNC(=O)Nc1ccc(-c2cc(F)cc(-c3cccc(N4CCN(C(C)(C)C)CC4)c3)c2O)cc1Cl
Result: 10 to 100 nM

Request: # IC50 lookup, item Cn1ccn(-c2ccc(-c3cc(F)cc(-c4cnc(C5CC5)c(N5CC(C)(O)C6(CC6)C5)c4)c3O)cc2Cl)c1=O (stereo not drawn)
Result: 0.01 to 1 nM

Request: # IC50 lookup, item Cc1cc(-c2ccc(-n3ccn(C)c3=O)c(Cl)c2)c(O)c(-c2cnc(N(C)C)c(N3CCC4(CCN4C(C)C)C3)c2)n1 (stereo not drawn)
Result: 1 to 10 nM

Request: # IC50 lookup, item Cc1ncc(-c2cc(F)cc(-c3ccc(-n4ccn(C)c4=O)c(Cl)c3)c2O)cc1N1CC(F)(F)[C@](C)(O)C1
Result: 1 to 10 nM

Request: # IC50 lookup, item Cn1ccn(-c2ccc(-c3cc(F)cc(-c4cccc(N5CCN(C(C)(C)C)CC5)n4)c3O)cc2Cl)c1=O
Result: > 100 nM

Request: # IC50 lookup, item CC(C)N1CCCC12CCN(c1cc(-c3cc(F)cc(-c4ccc(-n5ccn(C)c5=O)c(Cl)c4)c3O)cnc1N(C)C)C2 (stereo not drawn)
Result: 1 to 10 nM

Request: # IC50 lookup, item Cc1cc(-c2ccc(-n3ccn(C)c3=O)c(Cl)c2)c(O)c(-c2ccnc(N3CC(F)(F)[C@](C)(O)C3)c2)n1
Result: 1 to 10 nM

Request: # IC50 lookup, item COc1ncc(-c2cc(F)cc(-c3ccc(-n4ccn(C)c4=O)c(Cl)c3)c2O)cc1N1CCN(C(C)(C)CO)CC1
Result: 1 to 10 nM

Request: # IC50 lookup, item Cc1cc(-c2ccc(-n3ccn(C)c3=O)c(Cl)c2)c(O)c(-c2cnc(N)c(N3CCN(C(C)(C)C)CC3)c2)n1
Result: 1 to 10 nM

Request: # IC50 lookup, item COc1ncc(-c2nc(C)cc(-c3ccc(-n4ccn(C)c4=O)c(Cl)c3)c2O)cc1N1CCN(C(C)(C)C)CC1
Result: 1 to 10 nM

Request: # IC50 lookup, item Cn1ccn(-c2ccc(-c3cc(F)cc(-c4cccc(N5CCN(C(C)(C)C)CC5)c4)c3O)cc2F)c1=O
Result: 1 to 10 nM

Request: # IC50 lookup, item [2H]C([2H])([2H])n1ccn(-c2ccc(-c3cc(F)cc(-c4cccc(N5CCN(C(C)(C)C)CC5)c4)c3O)cc2Cl)c1=O
Result: 1 to 10 nM
